Biological target: T1, RlpA-Δ32 (P. aeruginosa PAO1, UniProt Q9X6V6 32-342)
T1 construct: source: E. coli BL21-star (DE3), purified (Ni-NTA)
T1 sequence: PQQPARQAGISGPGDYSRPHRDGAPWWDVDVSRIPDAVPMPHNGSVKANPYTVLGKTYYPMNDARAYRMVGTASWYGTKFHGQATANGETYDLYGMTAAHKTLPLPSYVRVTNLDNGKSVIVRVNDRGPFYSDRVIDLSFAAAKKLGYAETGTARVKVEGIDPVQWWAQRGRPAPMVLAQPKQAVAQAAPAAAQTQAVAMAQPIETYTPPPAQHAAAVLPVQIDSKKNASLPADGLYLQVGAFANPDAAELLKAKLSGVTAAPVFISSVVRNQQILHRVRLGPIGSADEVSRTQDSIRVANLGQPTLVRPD
Test: SPR
Settings: both partners purified
Each item that follows carries a reported Kd.
readout_name: Kd

[[record]]
binder = "PA4063 (natural protein, source: E. coli, purified (Ni-NTA or Strep-Tactin)) HDDHDHDHAHGSLGKHEHGVAQLNVALDGKTLELELDSPAMNLVGFEHAASTDADKAAVAKARAQLEKPLELFALPVTAGCSVASQELRSPLFGDKAPAHAHKEKAGHEHEHEHEHEHGHADIHAHYQLSCEKPELLKLLTLAEFFKRFPATQKIQVQLIGPDGQKGADLAPASAELKL"
readout_name = "Kd"
data_value = "810 nM"

[[record]]
binder = "PilO (natural protein, source: E. coli, purified (Ni-NTA or Strep-Tactin)) YNFHLSDMQAQLEQQAAEEETLKQQFSTKAFQAANLEAYKAQMKEMEESFGALLRQLPSDTEVPGLLEDITRTGLGSGLEFEEIKLLPEVAQQFYIELPIQISVVGGYHDLATFVSGVSSLPRIVTLHDFEIKPVAPGSTSKLRMSILAKTYRYNDKGLKK"
readout_name = "Kd"
data_value = "3130 nM"

[[record]]
binder = "SltB1 (enzyme, P. aeruginosa PAO1, UniProt Q9HX24 1-340, looked up) GDYDGSPQVAEFVSEMTRDYGFAGEQLMGLFRDVNRKQSILDAISRPAERVKQWKEYRPIFISDARISRGVDFWNKHAEDLARAEKEYGVPAEIIVSIIGVETFFGRNTGSYRVMDALSTLGFDYPPRADFFRKELREFLLLAREQQVDPLSLTGSYAGAMGLPQFMPSSFRAYAVDFDGDGHINIWSDPTDAIGSVASYFKQHGWVTGEPVVSVAEINDESAESAVTRGVDPTMSLGELRARGWRTHDALRDDQKVTAMRFVGDKGIEYWVGLPNFYVITRYNRSAMYAMAVYQLAGEIARARGAH"
readout_name = "Kd"
data_value = "3850 nM"

[[record]]
binder = "PilA (natural protein, source: E. coli, purified (Ni-NTA or Strep-Tactin)) PQYQNYVARSEGASALATINPLKTTVEESLSRGIAGSKIKIGTTASTATETYVGVEPDANKLGVIAVAIEDSGAGDITFTFQTGTSSPKNATKVITLNRTADGVWACKSTQDPMFTPKGCDN"
readout_name = "Kd"
data_value = "1980 nM"

